# Test system: NCI-H1355
# assay name: relative viability (nuclei count vs DMSO), 5 days (fraction); higher = more cells survive
# experimental parameters: first compound 0.01 µM
reported property: relative viability
Answers are plain numbers.

// known answers, use as guide
NC(=O)Nc1cc(-c2cccc(F)c2)sc1C(=O)N[C@H]1CCCNC1 [AZD7762] + Cc1cc(Nc2cc(N3CCN(C)CC3)nc(Sc3ccc(NC(=O)C4CC4)cc3)n2)n[nH]1 [Tozasertib] (partner 0.1 µM)
0.621
NC(=O)Nc1cc(-c2cccc(F)c2)sc1C(=O)N[C@H]1CCCNC1 [AZD7762] + CS(=O)(=O)N1CCN(Cc2cc3nc(-c4cccc5[nH]ncc45)nc(N4CCOCC4)c3s2)CC1 [Pictilisib] (partner 1 µM)
0.405

Req: Complete the entry with relative viability for NC(=O)Nc1cc(-c2cccc(F)c2)sc1C(=O)N[C@H]1CCCNC1 [AZD7762] + CC(=O)c1c(C)c2cnc(Nc3ccc(N4CCNCC4)cn3)nc2n(C2CCCC2)c1=O [Palbociclib] (partner 0.5 µM)
Resp: 0.415
